# STUDY SYSTEM: Gastricsin (Homo sapiens)
# Sequence (P20142 60-388): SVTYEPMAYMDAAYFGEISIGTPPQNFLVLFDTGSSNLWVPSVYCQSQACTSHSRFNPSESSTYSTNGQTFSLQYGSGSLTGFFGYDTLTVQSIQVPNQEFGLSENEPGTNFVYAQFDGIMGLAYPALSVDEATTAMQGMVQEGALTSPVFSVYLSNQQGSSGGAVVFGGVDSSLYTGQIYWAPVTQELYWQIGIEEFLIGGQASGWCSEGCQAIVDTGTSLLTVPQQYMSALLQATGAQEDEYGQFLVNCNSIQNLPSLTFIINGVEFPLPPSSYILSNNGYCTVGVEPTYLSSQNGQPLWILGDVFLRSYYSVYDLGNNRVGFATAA
# EXPERIMENT: Cleavage of peptide substrates by gastricsin (MSP-MS assay)
# Type: biochemical
# Parameters: purchased R&D Systems 6186-AS
# MEASUREMENT PARAMETERS: Target Protease Gastricsin; relative to the most cleaved substrate (1.00)
Where no end group is shown, it is not given here.
A collection of sequences and their measured Relative Cleavage
Please reply with the number alone, leaving off any unit.

Consider the following illustrative entries.
>>> df
                             residue_string    measured_metric  observed_value
0  PWTWYGVK [PWTW|YGVK, gastricsin peptide substrate]  Relative Cleavage            1.00
1  VGKWSYRM [VGKW|SYRM, gastricsin peptide substrate]  Relative Cleavage            0.34
2  DEGWALQH (also: fluorophore and quencher) [DEGW|ALQH]  Relative Cleavage            0.47

--- query ---
Task: Given NMKWTRVL [NMKW|TRVL, gastricsin peptide substrate] , state its recorded Relative Cleavage.
Result: 0.33

---

A collection of substances and their measured Total Cleavage
# STUDY SYSTEM: Cathepsin E (Homo sapiens)
# Sequence (P14091 54-396): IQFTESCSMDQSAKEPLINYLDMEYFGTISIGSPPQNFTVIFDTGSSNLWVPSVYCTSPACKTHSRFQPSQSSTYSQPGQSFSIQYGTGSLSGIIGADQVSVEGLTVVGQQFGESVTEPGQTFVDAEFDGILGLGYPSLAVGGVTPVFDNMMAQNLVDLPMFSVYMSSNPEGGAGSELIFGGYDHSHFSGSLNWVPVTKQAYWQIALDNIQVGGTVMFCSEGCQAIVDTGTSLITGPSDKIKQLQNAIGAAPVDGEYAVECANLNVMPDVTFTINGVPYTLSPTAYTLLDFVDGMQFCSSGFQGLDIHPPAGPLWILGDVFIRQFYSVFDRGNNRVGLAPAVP
# EXPERIMENT: Cleavage of peptide substrates by cathepsin E (MSP-MS assay)
# Assay type: biochemical
# Design: purchased R&D Systems 1294-AS
# MEASUREMENT PARAMETERS: Target Protease Cathepsin E

Consider the following illustrative entries.
                                  substance  observed_value
0  FGIFYLNG [FGIF|YLNG, cathepsin E peptide substrate]              22
1  GLYFRYE [GLY|FRYE, cathepsin E peptide substrate]              25
2  IKILMFYW [IKIL|MFYW, cathepsin E peptide substrate]              17

--- query ---
Task: Given HMIALYWG [HMIA|LYWG, cathepsin E peptide substrate] , state its recorded Total Cleavage.
Result: 10

---

# STUDY SYSTEM: Cathepsin E (Homo sapiens)
# Sequence (P14091 54-396): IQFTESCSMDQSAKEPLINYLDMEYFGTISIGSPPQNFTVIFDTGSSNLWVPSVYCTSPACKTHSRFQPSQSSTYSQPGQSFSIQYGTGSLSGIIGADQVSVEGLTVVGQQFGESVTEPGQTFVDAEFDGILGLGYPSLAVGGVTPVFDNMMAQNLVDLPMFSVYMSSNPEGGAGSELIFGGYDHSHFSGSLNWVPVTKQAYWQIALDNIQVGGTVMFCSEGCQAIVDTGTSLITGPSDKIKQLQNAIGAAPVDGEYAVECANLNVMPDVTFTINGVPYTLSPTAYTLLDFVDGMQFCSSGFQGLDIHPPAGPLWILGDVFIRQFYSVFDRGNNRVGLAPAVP
# EXPERIMENT: Cleavage of peptide substrates by cathepsin E (MSP-MS assay)
# Format: biochemical
# Design: purchased R&D Systems 1294-AS
# MEASUREMENT PARAMETERS: Target Protease Cathepsin E; relative to the most cleaved substrate (1.00)
A collection of substances and their measured Relative Cleavage

Consider the following illustrative entries.
>>> print(df.to_string())
                                  substance  observed_value
0  IKILMFYW [IKIL|MFYW, cathepsin E peptide substrate]            0.68
1  HMIALYWG [HMIA|LYWG, cathepsin E peptide substrate]            0.40

Task: Given GLYFRYE [GLY|FRYE, cathepsin E peptide substrate] , state its recorded Relative Cleavage.
Result: 1.00

Task: Given FGIFYLNG [FGIF|YLNG, cathepsin E peptide substrate] , state its recorded Relative Cleavage.
Result: 0.88
